Hello, the source for this data is the supplement of paper PMC12669032, in case you need it.

System: Odoribacter splanchnicus
test.details: growth AUC relative to DMSO control (median of replicates) (fraction); higher = more growth (less inhibition), active = hit call of the paper;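 active = AUC reduced over 20% with Padj below 0.05 in at least 2 of 3 replicates; inactive = otherwise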
run.conditions: 20 µM; 24 h
Hi! Could you answer with just one of these? active, inactive

compound	class.assignment
OC(Cc1ccccc1Cl)(Cn1[nH]cnc1=S)C1(Cl)CC1 (stereo unspecified)	inactive
ClC1=C(Cl)C2(Cl)[C@H]3[C@@H]4O[C@@H]4[C@H](Cl)[C@H]3C1(Cl)C2(Cl)Cl (single isomer, unassigned; isomer b)	inactive
Oc1cccc2cccnc12	inactive
Cc1cc(C)nc(Nc2ccccc2)n1	inactive
O=C1C2CC=CCC2C(=O)N1SC(Cl)(Cl)Cl (stereo unspecified)	inactive
O=C(O)c1c(Cl)ccc2cc(Cl)cnc12	inactive

Look up the recorded call for `CCOc1cc(OP(=S)(OC)OC)nc(CC)n1` in this test.
inactive

Another compound: `Cc1cc(C)c(C2=C(OC(=O)CC(C)(C)C)C3(CCCC3)OC2=O)c(C)c1`
inactive

Also check `Cc1ccc(NC(=O)N(C)C)cc1Cl`
inactive

Try `CCOP(=S)(OCC)SCS(=O)(=O)CC` next.
inactive

# iterate: `COC(=O)c1ccccc1S(=O)(=O)NC(=O)Nc1nc(C)cc(C)n1`
inactive

What do you have for `Oc1ccc(Cl)cc1Cc1cc(Cl)ccc1O` ?
active

Further, for `O=S(=O)(c1ccc(O)cc1)c1ccc(O)cc1` ?
inactive

# iterate: `CCc1cccc(CC)c1N(COC)C(=O)CCl`
inactive

One more compound: CP(=O)(O)CCC(N)C(=O)[O-].[NH4+] (stereo unspecified)
inactive

Now the same for COC(C)(C)CCCC(C)C/C=C/C(C)=C/C(=O)OC(C)C (stereo unspecified)
inactive
